# test name: soluble on expression in E. coli; label from the status in PepcDB or PDB records
readout name: soluble on expression in E. coli

MGSRRYDSRTTIFSPEGRLYQVEYALESISHAGTAIGIMASDGIVLAAERKVTSTLLEQDTSTEKLYKLNDKIAVAVAGLTADAEILINTARIHAQNYLKTYNEDIPVEILVRRLSDIKQGYTQHGGLRPFGVSFIYAGYDDRYGYQLYTSNPSGNYTGWKAISVGANTSAAQTLLQMDYKDDMKVDDAIELALKTLSKTTDSSALTYDRLEFATIRKGANDGEVYQKIFKPQEIKDILVKTGITKKDEDEEADEDMK: soluble
MSLQPVPDAGPWGDYLCDSPWALINSSIYAMKEIEPEPDFILWTGDDTPHVPDEKLGEAAVLEIVERLTKLIREVFPDTKVYAALGNHDFHPKNQFPAGSNNIYNQIAELWKPWLSNESIALFKKGAFYCEKLPGPSGAGRIVVLNTNLYYTSNALTADMADPGQQFQWLEDVLTDASKAGDMVYIVGHVPPGFFEKTQNKAWFREGFNEKYLKVVRKHHRVIAGQFFGHHHTDSFRMLYDDAGVPISAMFITPGVTPWKTTLPGVVNGANNPAIRVFEYDRATLSLKDMVTYFMNLSQANAQGTPRWELEYQLTEAYGVPDASAHSMHTVLDRIAGDQSTLQRYYVYNSVSEGHHHHHH: soluble

----------
# test name: soluble on expression in E. coli; label from the status in PepcDB or PDB records
readout name: soluble on expression in E. coli

QLVLVKRSTPPVAVIWSAPDCPYCRKLEKTLEQENASVYVVPVGVAENGFRQAARVYCADDPSQAWRKVMQGSEINGRAKTSCQYPRDMLNDIGFFLGMGRMATPIVVFADGSTVIGWNDQNAWMLLRKKISEQIFFND: not soluble
MSITHQPANLTLAQIQQMIGGVMLLSQHSPLHRRYVVAEWLQRILPAFELNQFCYYEDEHGRPIAFCNWAFVSEQIRDELLSGVREISPSDWRSGQQIYIPEMIAPFGHGREVVNDLRRRVFLPWQGQKVCTVRGKVDAQNDRCIRKVQWFSI: not soluble
GPGSMMMQRSQKMLLDPASFIERPPRNTLFNIVPQGHEYVVERLGRYHRTLDSGWWVVVPFIDKIRYNYNVKEQGIEIPNQSAITSDNVMVEIDGVLFLKIVDSCKASYNIENPVFNLINLAQTTMRSEIGRMSLDSLFRERASLNQSTVEVLRREANEWGIECKRYEIRDIVVSELVRRSMDLQAEAERKKRKLILESEGESTATINRANGMKIAQQCVADAEKYTAERQSEGAAAAIRVKAAAVSDNISIVSDAIEKAK: not soluble

----------
# test name: soluble on expression in E. coli; label from the status in PepcDB or PDB records
readout name: soluble on expression in E. coli

MIKYARQIYSTKQEVIMATYFSDNLTADQQNQVQQIIQQFQHPTLQKDLIVLNTLKKVEKGGDTLRIELQLPFAWNSGAEQLKQAVSDALLKATDCKLIKWAVAYQIATLKRANNQPAVKGVKNIIAVSSGKGGVGKSSVSVNLALALQAQGARVGILDADIYGPSIPHMLGAADQRPTSPDNQHITPIKAHGLSANSIGFLMNEDSATIWRGPMASSALSQLLNETLWDSLDYLVIDMPPGTGDIQLTLSQQIPVTGAVVVTTPQDIALLDAVKGISMFERVSVPVLGIVENMSMHICSECGHHEAIFGTGGAEKMAEKYNVKVLAQLPLHIRIREDLDAGNPTVVRVPENEISQAFLQLAEKVSTELYWQGSVIPSEILFKEVKLEHHHHHH: soluble
MGSDKIHHHHHHENLYFQGMIIRYATPDDIEDMVSIFIDAYNFPGPRESVKSSFEISLEVQPDGCLLAFLKDEPVGMGCIFFYNKQAWIGLMGVKKAYQRRGIGTEVFRRLLEIGRRKVDTIRLDASSQGYGLYKKFKFVDEYRTVRYELMERPIKRVEGVVEVNKIPNWVKEIDKKAFGDDRIRVLEAYMRRGARLLCAENEGFGLVYRGKIGPLVADSPRVAEKILLKAFQLGAREIIIPEVNKDALELIKIFKPSQVTSCMRMRLGSKIEEKVDIYYGILAYAKG: soluble

Hey, just so you know, these numbers are from the DeepSol protein solubility set.
